- Test system: ctXPD wild type;ctMAT1Lock (Chaetomium thermophilum;Chaetomium thermophilum)
- measurement.notes: fluorescence anisotropy
- particulars: 5 mM Mg2+; equimolar ctMAT1Lock; ctXPD: 20 mM HEPES pH 7.5, 50 mM KCl, 5 mM MgCl2, 1 mM TCEP, 5 nM DNA, room temperature; ctDDX11: 25 mM HEPES pH 7.5, 25 mM KCl, 1 mM MgSO4, 1 mM TCEP, 2 nM …
assay.readout: Kd (nM)
Reply numerically in nM, unit not repeated.

Lookup: // lookup Kd | system=ctXPD wild type;ctMAT1Lock (Chaetomium thermophilum;Chaetomium thermophilum) | key= AGCTACCATGCCTGCACGAATTAAGCAATTCGTAATCATGGTCATAGC / GCTATGACCATGATTACGAATTGCTTGGAATCCTGACGAACTGTAG [splayed duplex DNA]
Found: 379
